// provenance: PubChem BioAssay

Provide the recorded composite z-score for the entries that follow.
assay: small-molecule binders of probe aLefty1, primary screen, biochemical, small-molecule microarray, 635/667 nm fluorescence (AID 1153); settings: higher = more signal;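 further: score merges spot fluorescence with signal-to-noise ratio from the scanned slide images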
Give bare numbers.

{"COMPOUND": "O=C/C=C/c1ccccc1Cl", "PROPERTY_NAME": "composite z-score", "ENDPOINT_VALUE": -0.191}

// for each compound in input: emit composite z-score
1. CO[C@H]1COC(=O)[C@H](Cc2ccccc2)NC(=O)CC=C[C@@H](C)[C@H](OC)COC(=O)CC=C[C@@H]1C
2. O=C1C2C=CC(C(O)C#Cc3ccccc3)N(Nc3ccccc3)C2C(=O)N1c1ccccc1 (stereo not drawn)
3. COc1cc(Cc2cc3c(c(CCc4ccccc4)n2)[Si](C(C)C)(C(C)C)OC3)cc(OC)c1OC
4. O=C1OCCC=C[C@H]2OC34C=CCN(Cc5ccccc5)C(=O)[C@H]3N(CCO)C(=O)[C@@H]4C12 (stereo partly drawn)
5. C[C@]1(C(=O)NCc2ccccc2)c2ccccc2C(=O)N(Cc2cc(C(F)(F)F)cc(C(F)(F)F)c2)[C@H]1c1ccc(CO)cc1
6. CO[C@H]1O[C@H](CO)[C@@H](OC(=O)Nc2ccc3c(c2)OCO3)[C@H](OC(=O)Nc2ccccc2)[C@@H]1OC(=O)Nc1ccccc1
7. C[N+](C)(C)CCCCNC(=O)[C@H]1C[C@H]2C(=O)NCC(=O)N2[C@H]1c1cccc(OCCO)c1

Output line:
1. -0.0241
2. -0.025
3. -0.0501
4. -0.133
5. 0.364
6. 0.121
7. 0.223
